Entries annotated with measured kon
Biological target: T1, VV B5 monomer protein (Wyeth Vaccinia strain B5 with C-terminal AVI tag and HIS6 tag) (Vaccinia virus, Wyeth strain, UniProt O57254 18-279)
T1 construct: also called B5 protein; VV B5 protein
Test: BLI (Octet), antibody on AHC sensor, B5 monomer analyte

Record request: kon value, item A048-H4L3 (antibody, V domains shown) VH: EVQLLESGGGLVQPGGSLRLSCAASGFSFSSSYYMCWVRQAPGKGLEWIACIYTSSGSAYYADSVKGRFTISRTSSTTVTLQMNSLRAEDTAVYYCVRNAVGSSYYLYLWGQGTLVTVSS VL: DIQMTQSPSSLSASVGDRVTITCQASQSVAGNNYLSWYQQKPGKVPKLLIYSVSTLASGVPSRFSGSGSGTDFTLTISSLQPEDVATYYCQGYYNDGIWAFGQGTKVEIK 75200 M⁻¹ s⁻¹

Record request: kon value, item A048-H5L5 (antibody, V domains shown) VH: QVTLKESGPVLVKPTETLTLTCTASGFSFSSSYYMCWVRQPPGKALEWIACIYTSSGSAYYANWAKGRFTISRDTSKSQVVLTMTNMDPVDTATYFCVRNAVGSSYYLYLWGQGTLVTVSS VL: EQVLTQSPATLSLSPGERATLSCQASQSVAGNNYLSWYQQKPGQAPRLLIYSVSTLASGIPARFSGSGSGTDFTLTISSLEPEDFAVYYCQGYYNDGIWAFGQGTKLEIK 60800 M⁻¹ s⁻¹

Record request: kon value, item A048-H2L4 (antibody, V domains shown) VH: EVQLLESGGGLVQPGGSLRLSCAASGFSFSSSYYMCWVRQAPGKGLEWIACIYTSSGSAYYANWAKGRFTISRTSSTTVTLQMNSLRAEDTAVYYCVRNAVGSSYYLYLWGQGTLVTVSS VL: AQVLTQSPSSLSASVGDRVTITCQASQSVAGNNYLSWYQQKPGKVPKLLIYSVSTLASGVPSRFSGSGSGTDFTLTISSLQPEDVATYYCQGYYNDGIWAFGQGTKVEIK 81600 M⁻¹ s⁻¹

Record request: kon value, item A048-H2L3 (antibody, V domains shown) VH: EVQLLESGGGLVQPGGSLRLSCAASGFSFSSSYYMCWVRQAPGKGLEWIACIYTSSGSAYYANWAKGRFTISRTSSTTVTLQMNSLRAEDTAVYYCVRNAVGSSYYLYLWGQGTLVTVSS VL: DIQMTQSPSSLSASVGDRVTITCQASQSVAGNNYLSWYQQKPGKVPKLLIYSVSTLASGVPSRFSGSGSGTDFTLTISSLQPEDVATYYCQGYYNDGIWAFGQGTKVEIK 82100 M⁻¹ s⁻¹

Record request: kon value, item A048-H1L3 (antibody, V domains shown) VH: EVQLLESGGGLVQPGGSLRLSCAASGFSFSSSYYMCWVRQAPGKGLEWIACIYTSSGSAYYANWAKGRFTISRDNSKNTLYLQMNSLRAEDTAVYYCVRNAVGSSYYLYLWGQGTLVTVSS VL: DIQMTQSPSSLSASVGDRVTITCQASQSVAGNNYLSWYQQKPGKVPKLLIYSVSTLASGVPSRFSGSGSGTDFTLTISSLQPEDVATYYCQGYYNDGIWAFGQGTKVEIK 96400 M⁻¹ s⁻¹
